Each recorded value in this set is attributed to the METLIN SMRT retention time set (Domingo-Almenara et al. 2019).

Assay: gradient 5% acetonitrile 3 min, to 50% in 2 min, to 85% in 15 min, held 3 min, 100 µL/min
Conditions: column: Zorbax Extend-C18 2.1 x 50 mm; eluents: water / acetonitrile, 0.1% formic acid
MEASURED_QUANTITY: RP-LC retention time (s)

compound=O=C(Nc1ccc2c(c1)CN(C(=O)Nc1ccc3c(c1)OCCO3)CCO2)C1CC1 obs_value=717
compound=Cc1nccn1CCNC(=O)c1cc(-c2ccccc2)on1 obs_value=569
compound=CCc1ccc(NC(=O)C2CCN(c3cncnc3N3CCOCC3)CC2)cc1 obs_value=675
compound=CCCCNC(=O)Cc1nnc(-c2ccc(C)cc2)o1 obs_value=755
compound=COc1ccc(S(=O)(=O)N2[C@H]3CC[C@@H]2c2cncnc2C3)cc1 obs_value=715
compound=COc1ccc(-c2csc(Nc3cccnc3)n2)cc1OC obs_value=620
compound=COc1ccc(NC(=O)Nc2cc(-c3cn4cccnc4n3)ccc2OC)cc1 obs_value=651
compound=Cn1cc(S(=O)(=O)N2CCC(C(=O)NCc3ccccc3Cl)CC2)cc1C(=O)N1CCCC1 obs_value=752
compound="O=C(c1ccc(CS(=O)c2ccccc2Cl)o1)N1CCN(c2ccccn2)CC1 (stereo not given)" obs_value=604
compound="Cn1c(C2CCCN(S(C)(=O)=O)C2)nn(CC(=O)NC2CCCCC2)c1=O (stereo not given)" obs_value=606
